- assayed-system: human A2a receptor (Homo sapiens)
- Construct: purchased Perkin-Elmer RBHA2AM400UA; host or cells: HEK293 cells (membranes)
- Sequence (P29274 whole entry): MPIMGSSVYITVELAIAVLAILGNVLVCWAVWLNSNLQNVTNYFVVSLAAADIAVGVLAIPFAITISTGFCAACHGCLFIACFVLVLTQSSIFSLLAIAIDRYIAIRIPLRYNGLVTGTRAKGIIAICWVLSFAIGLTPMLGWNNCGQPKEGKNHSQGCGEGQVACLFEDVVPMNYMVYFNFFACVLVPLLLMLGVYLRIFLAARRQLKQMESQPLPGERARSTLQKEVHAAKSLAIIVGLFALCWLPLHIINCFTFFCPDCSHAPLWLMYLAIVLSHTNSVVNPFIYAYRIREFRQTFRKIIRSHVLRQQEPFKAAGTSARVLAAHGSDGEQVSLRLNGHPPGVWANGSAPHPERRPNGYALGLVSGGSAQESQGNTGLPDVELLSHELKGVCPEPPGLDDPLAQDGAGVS
- measurement-protocol: Competition binding assay using Scintillation Proximity technology (A2a activity)
- condition-info: membranes from HEK293 cells expressing the human A2a receptor; 0.5 nM tritiated ligand; Cheng-Prusoff
pKi: −log10 of the molar value.
observed-property: pKi

Some compounds with known pKi results, for comparison:
INSERT INTO results (compound, observed_measurement) VALUES
  ('COc1cccc2c1nc(N)n1nc(C(=O)N3CCC4(CCN(C(=O)OC(C)(C)C)C4)C3)cc21 (stereo not drawn)', 7.96),
  ('COc1cccc2c1nc(N)n1nc(C(=O)N(C)Cc3cccc4cccnc34)cc21', 8.15),
  ('COc1cccc2c1nc(N)n1nc(Cc3ccccc3F)cc21', 9.00),
  ('COc1cccc2c1nc(N)n1nc(Cc3ccc(C(F)(F)F)cc3)cc21', 6.89),
  ('COc1cccc2c1nc(N)n1nc(Cc3ccccc3C(F)(F)F)cc21', 7.77),
  ('COc1cccc2c1nc(N)n1nc(Cc3ccc(F)c(F)c3F)cc21', 7.57);

P. COc1cccc2c1nc(N)n1nc(C(=O)N(C)Cc3ccccc3)cc21
Q. COc1cccc2c1nc(N)n1nc(C(=O)N3CCCCC3)cc21
R. COc1cccc2c1nc(N)n1nc(C(=O)N3CCC4(CCNC4)CC3)cc21
S. COCCOc1ccc(N2CCN(CCOc3cccc4c3nc(N)n3nc(-c5ccco5)cc43)CC2)cc1
In this exercise, place the 4 compounds in ascending sequence of their recorded pKi. As an answer, provide the labels arranged in the order called for.
S, R, Q, P
(S: 6.17, R: 6.61, Q: 7.43, P: 8.40)

a. COc1cccc2c1nc(N)n1nc(Cc3c(F)cccc3F)cc21
b. COc1cccc2c1nc(N)n1nc(Cc3c(F)cccc3Cl)cc21
Higher pKi between a and b ? Select an item and report its label.
a
(a: 8.52, b: 7.60)

P. COc1cccc2c1nc(N)n1nc(C(=O)N3CCNCC3)cc21
Q. COc1cccc2c1nc(N)n1nc(Cc3cccc(F)c3F)cc21
Higher pKi between P and Q ? Select an item and report its label.
Q
(Q: 8.22, P: 6.52)

I. COc1cccc2c1nc(N)n1nc(C(=O)N3CCC4(CCN(Cc5ccccc5)C4)C3)cc21 (stereo not drawn)
II. COc1cccc2c1nc(N)n1nc(CN3CCN(c4ccccc4)CC3)cc21
Higher pKi between I and II ? Select an item and report its label.
I

Entry source: patent US10688082B2
